System tested: ETS1 (UniProt P14921)
Sequence: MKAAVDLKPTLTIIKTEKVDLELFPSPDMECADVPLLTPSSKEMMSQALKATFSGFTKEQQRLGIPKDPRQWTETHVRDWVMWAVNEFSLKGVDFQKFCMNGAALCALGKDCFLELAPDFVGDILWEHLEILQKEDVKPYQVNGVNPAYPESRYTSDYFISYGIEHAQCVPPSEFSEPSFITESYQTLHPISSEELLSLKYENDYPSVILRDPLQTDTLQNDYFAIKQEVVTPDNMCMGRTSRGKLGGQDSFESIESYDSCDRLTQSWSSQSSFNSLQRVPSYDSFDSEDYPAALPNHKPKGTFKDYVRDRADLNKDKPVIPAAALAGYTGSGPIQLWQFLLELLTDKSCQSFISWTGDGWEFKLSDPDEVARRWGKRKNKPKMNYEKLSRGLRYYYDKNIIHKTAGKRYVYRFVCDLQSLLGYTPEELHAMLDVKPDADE
Protocol text: ETS1 binding intensity (PBM fluorescence) in presence of RUNX1, normalised to ETS1-only experiment (arbitrary fluorescence units); higher = stronger binding
Assay conditions: ETS1 concentration 1 nM; RUNX1 concentration 25 nM
Grouping key: ETS1 binding intensity. Bins: low range: < 900; mid range: ≥ 900 and < 3000; high range: ≥ 3000

- GAGTTGCTTCCGGCCGTGTTGGTGGTCTGAATTGAG: mid range

# classify by ETS1 binding intensity band: CGCCGGCTCCCGGATGTTGTGGGGATCAGCGCCCGC
high range

---

System tested: ETS1 (UniProt P14921)
Sequence: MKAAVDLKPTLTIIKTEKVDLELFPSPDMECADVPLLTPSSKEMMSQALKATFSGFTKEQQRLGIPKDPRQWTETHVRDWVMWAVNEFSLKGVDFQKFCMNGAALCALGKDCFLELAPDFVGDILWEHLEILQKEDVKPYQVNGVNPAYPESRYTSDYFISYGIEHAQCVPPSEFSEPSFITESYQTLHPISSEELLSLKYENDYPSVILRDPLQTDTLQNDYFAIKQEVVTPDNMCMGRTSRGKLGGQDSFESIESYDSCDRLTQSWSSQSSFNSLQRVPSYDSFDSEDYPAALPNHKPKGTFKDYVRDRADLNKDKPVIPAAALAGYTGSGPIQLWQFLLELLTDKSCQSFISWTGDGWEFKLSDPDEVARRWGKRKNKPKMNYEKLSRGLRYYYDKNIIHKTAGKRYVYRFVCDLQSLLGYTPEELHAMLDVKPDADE
Protocol text: ETS1 binding intensity (PBM fluorescence), ETS1 alone (arbitrary fluorescence units); higher = stronger binding
Assay conditions: ETS1 concentration 1 nM; RUNX1 concentration 0 nM
# binarize ETS1 binding intensity: threshold 1000 inclusive, high side Met, low side Not met

Given GATGGTGTCTTTTGGGGATGTGGGTTTGGGGGATGG , state whether its ETS1 binding intensity is at least 1000.
Not met

Given CTACCCTCCCTCTTCCTGTGGTTTCTCAAACATGTC , state whether its ETS1 binding intensity is at least 1000.
Not met

Given CTACAAACGGCTTCCTCCTGCCTAACCACAACCTCA , state whether its ETS1 binding intensity is at least 1000.
Not met

Given GCTGTTTCCTGCTGATAAAAACACCCCACAACTTCA , state whether its ETS1 binding intensity is at least 1000.
Not met

Given GTCCTCCACTATTGTTTCCGGCCGCAGCAGAGGCGG , state whether its ETS1 binding intensity is at least 1000.
Met

Given AACGGACCCGGAAGGGGCAGGTCTTGTGGGCGGGTC , state whether its ETS1 binding intensity is at least 1000.
Not met

Given CCGCGAGCCGTCACTTCCTGTGGGCTGGGCCGAGCC , state whether its ETS1 binding intensity is at least 1000.
Met

Given GACACAAGAACAGCAGGATGTGGTCAGAGGCGTCGT , state whether its ETS1 binding intensity is at least 1000.
Met

Given TGTTTACTTCCTGGAGGCACTTTGGTTTTTCTTTCT , state whether its ETS1 binding intensity is at least 1000.
Not met

Given TTTCCACTTCCTGTTCTACTTGTGGCTACTGACTCA , state whether its ETS1 binding intensity is at least 1000.
Met
